- Species: Rattus norvegicus
- protocol: Open TG-GATES - Regimen: Daily Repeat
- Assay type: toxicity, organism-based, Sprague-Dawley
- Set-up: regimen Daily Repeat, gender Male, age 6 weeks
- conditionsUsed: in vivo, po, 300 mg/kg, […], tissue Blood, route gavage, dose level Middle, time 14 day
measurementName: Eos (%)

compound="O=C(N[C@H](CO)[C@H](O)c1ccc([N+](=O)[O-])cc1)C(Cl)Cl [CHLORAMPHENICOL]" result=1.4
compound="CCN1CCCC1CNC(=O)c1cc(S(N)(=O)=O)ccc1OC (centres undefined) [SULPIRIDE]" result=1
compound="O=C(O)c1cccnc1 [NIACIN]" result=0.6
compound="CC(C)(S)[C@@H](N)C(=O)O [PENICILLAMINE]" result=1
